Saliva values, listed per item
Test system: Saliva
Test: Substrate cleavage by saliva (nonspecific activity)
Assay type: biochemical
Conditions: Table 2: 5 μM substrate, Dabcyl/EDANS, final buffer
Protocol: For these enzymatic reactions 150 ng/well enzyme was used under final and optimized assay conditions, i.e. […] Experiment were tested with 3 different saliva samples; representative results are shown.
Primed or numbered codes have the meaning given here. * marks the point of attachment. Dabcyl′ = CN(C)c1ccc(/N=N/c2ccc(C(=O)*)cc2)cc1; Dabcyl = CN(C)c1ccc(N=Nc2ccc(C(=O)*)cc2)cc1; EDANS = O=S(=O)(O)c1cccc2c(NCCN*)cccc12

Check out these entries, answers already filled in.
Dabcyl-TSAVLQSGF-EDANS ({Dabcyl′}-TSAVLQSGF-{EDANS}; SMILES CC(C)C[C@H](NC(=O)[C@@H](NC(=O)[C@H](C)NC(=O)[C@H](CO)NC(=O)[C@@H](NC(=O)c1ccc(/N=N/c2ccc(N(C)C)cc2)cc1)[C@@H](C)O)C(C)C)C(=O)N[C@@H](CCC(N)=O)C(=O)N[C@@H](CO)C(=O)NCC(=O)N[C@@H](Cc1ccccc1)C(=O)NCCNc1cccc2c(S(=O)(=O)O)cccc12) [Substrate#2] = 187 +/− 7
Dabcyl-TSAVLQSGFYK-EDANS ({Dabcyl′}-TSAVLQSGFYK-{EDANS}; SMILES CC(C)C[C@H](NC(=O)[C@@H](NC(=O)[C@H](C)NC(=O)[C@H](CO)NC(=O)[C@@H](NC(=O)c1ccc(/N=N/c2ccc(N(C)C)cc2)cc1)[C@@H](C)O)C(C)C)C(=O)N[C@@H](CCC(N)=O)C(=O)N[C@@H](CO)C(=O)NCC(=O)N[C@@H](Cc1ccccc1)C(=O)N[C@@H](Cc1ccc(O)cc1)C(=O)N[C@@H](CCCCN)C(=O)NCCNc1cccc2c(S(=O)(=O)O)cccc12) [Substrate#5] = 4688 +/− 53
Dabcyl-AVLQSGF-{EDANS} [Substrate#3] = 47 +/− 5

Data point: Dabcyl-KTSAVLQSGFRKME-EDANS [Commercial substrate, reference compound] ; Saliva = 2309 +/− 64

For Dabcyl-TSAVLQSGFRK-EDANS [Biosyn #1] the substance record lists Saliva as 1123 +/− 35

// recorded Saliva for Dabcyl-AVLQSGFRK-EDANS ({Dabcyl′}-AVLQSGFRK-{EDANS}; SMILES CC(C)C[C@H](NC(=O)[C@@H](NC(=O)[C@H](C)NC(=O)c1ccc(/N=N/c2ccc(N(C)C)cc2)cc1)C(C)C)C(=O)N[C@@H](CCC(N)=O)C(=O)N[C@@H](CO)C(=O)NCC(=O)N[C@@H](Cc1ccccc1)C(=O)N[C@@H](CCCNC(=N)N)C(=O)N[C@@H](CCCCN)C(=O)NCCNc1cccc2c(S(=O)(=O)O)cccc12) [Substrate#4] : 1515 +/− 40

* * *

molecular target: SARS-CoV-2 3CL Pro (Severe acute respiratory syndrome coronavirus 2); conditions: Table 2: 150 ng/well enzyme, 5 μM substrate, Dabcyl/EDANS, final buffer
Primed or numbered codes have the meaning given here. * marks the point of attachment. Dabcyl′ = CN(C)c1ccc(/N=N/c2ccc(C(=O)*)cc2)cc1; Dabcyl = CN(C)c1ccc(N=Nc2ccc(C(=O)*)cc2)cc1; EDANS = O=S(=O)(O)c1cccc2c(NCCN*)cccc12
Parameter Enzyme: see the listing below.

Consider the following illustrative entries.
Dabcyl-TSAVLQSGFYK-EDANS ({Dabcyl′}-TSAVLQSGFYK-{EDANS}; SMILES CC(C)C[C@H](NC(=O)[C@@H](NC(=O)[C@H](C)NC(=O)[C@H](CO)NC(=O)[C@@H](NC(=O)c1ccc(/N=N/c2ccc(N(C)C)cc2)cc1)[C@@H](C)O)C(C)C)C(=O)N[C@@H](CCC(N)=O)C(=O)N[C@@H](CO)C(=O)NCC(=O)N[C@@H](Cc1ccccc1)C(=O)N[C@@H](Cc1ccc(O)cc1)C(=O)N[C@@H](CCCCN)C(=O)NCCNc1cccc2c(S(=O)(=O)O)cccc12) [Substrate#5] = 527 +/− 7
Dabcyl-AVLQSGFRK-EDANS ({Dabcyl′}-AVLQSGFRK-{EDANS}; SMILES CC(C)C[C@H](NC(=O)[C@@H](NC(=O)[C@H](C)NC(=O)c1ccc(/N=N/c2ccc(N(C)C)cc2)cc1)C(C)C)C(=O)N[C@@H](CCC(N)=O)C(=O)N[C@@H](CO)C(=O)NCC(=O)N[C@@H](Cc1ccccc1)C(=O)N[C@@H](CCCNC(=N)N)C(=O)N[C@@H](CCCCN)C(=O)NCCNc1cccc2c(S(=O)(=O)O)cccc12) [Substrate#4] = 1077 +/− 35
Dabcyl-AVLQSGF-{EDANS} [Substrate#3] = 354 +/− 18

Now let's try a different one.
Item: Dabcyl-TSAVLQSGF-EDANS ({Dabcyl′}-TSAVLQSGF-{EDANS}; SMILES CC(C)C[C@H](NC(=O)[C@@H](NC(=O)[C@H](C)NC(=O)[C@H](CO)NC(=O)[C@@H](NC(=O)c1ccc(/N=N/c2ccc(N(C)C)cc2)cc1)[C@@H](C)O)C(C)C)C(=O)N[C@@H](CCC(N)=O)C(=O)N[C@@H](CO)C(=O)NCC(=O)N[C@@H](Cc1ccccc1)C(=O)NCCNc1cccc2c(S(=O)(=O)O)cccc12) [Substrate#2] | Enzyme: 449 +/− 36

* * *

Collected Enzymatic activity, Slope, HCoV-229E values appear next to each entry.
target: HCoV-229E 3CL protease (Human coronavirus 229E); construct: 6xHIS-tag (N); TEV-protease cleavage site (ENLYFQG) (N); made in house; host or cells: Rosetta BL21 E. coli, pET14b; test: Substrate cleavage by HCoV-229E 3CL protease; type: biochemical; conditions: Table 4: substrate 5 uM, enzyme 150 ng/reaction
Sequence (P0C6U2 2966-3267): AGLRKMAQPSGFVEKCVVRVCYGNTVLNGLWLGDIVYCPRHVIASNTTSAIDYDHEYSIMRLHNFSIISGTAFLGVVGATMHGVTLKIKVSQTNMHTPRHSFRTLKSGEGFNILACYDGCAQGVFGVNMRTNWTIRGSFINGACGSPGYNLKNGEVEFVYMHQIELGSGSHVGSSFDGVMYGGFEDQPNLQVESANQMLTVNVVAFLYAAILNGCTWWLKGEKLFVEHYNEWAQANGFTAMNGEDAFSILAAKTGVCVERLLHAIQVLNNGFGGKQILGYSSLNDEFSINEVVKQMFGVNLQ
Primed or numbered codes have the meaning given here. * marks the point of attachment. Dabcyl′ = CN(C)c1ccc(/N=N/c2ccc(C(=O)*)cc2)cc1; EDANS = O=S(=O)(O)c1cccc2c(NCCN*)cccc12
Express it in RFU/min; write the number only.

The following substances have reported results that may help.
Dabcyl-YGSTLQAGLRK-EDANS ({Dabcyl′}-YGSTLQAGLRK-{EDANS}; SMILES CC(C)C[C@H](NC(=O)CNC(=O)[C@H](C)NC(=O)[C@H](CCC(N)=O)NC(=O)[C@H](CC(C)C)NC(=O)[C@@H](NC(=O)[C@H](CO)NC(=O)CNC(=O)[C@H](Cc1ccc(O)cc1)NC(=O)c1ccc(/N=N/c2ccc(N(C)C)cc2)cc1)[C@@H](C)O)C(=O)N[C@@H](CCCNC(=N)N)C(=O)N[C@@H](CCCCN)C(=O)NCCNc1cccc2c(S(=O)(=O)O)cccc12) [Biosyn#6] = 213
Dabcyl-KTSAVLQSGFRKME-EDANS [Commercial substrate, reference compound] = 493
Dabcyl-TSAVLQSGFRK-EDANS [Biosyn #1] = 856

The record that follows has no Enzymatic activity, Slope, HCoV-229E shown yet.
In plain terms, Dabcyl-LEALFQGP[Asp-(EDANS) SQ [Amide] ({Dabcyl′}-LEALFQGPD(EDANS)SQ-NH2; SMILES CC(C)C[C@H](NC(=O)c1ccc(/N=N/c2ccc(N(C)C)cc2)cc1)C(=O)N[C@@H](CCC(=O)O)C(=O)N[C@@H](C)C(=O)N[C@@H](CC(C)C)C(=O)N[C@@H](Cc1ccccc1)C(=O)N[C@@H](CCC(N)=O)C(=O)NCC(=O)N1CCC[C@H]1C(=O)N[C@@H](CC(=O)NCCNc1cccc2c(S(=O)(=O)O)cccc12)C(=O)N[C@@H](CO)C(=O)N[C@@H](CCC(N)=O)C(N)=O) [Biosyn#7] has a documented Enzymatic activity, Slope, HCoV-229E of 45

From: patent US11879893B2
